measurement.notes: Displacement of [3H]U69593 from kappa opioid receptor in guinea pig cerebellum by beta plate scintillation counting

{"smiles.structure": "C=CCN1CC[C@]23c4c5ccc(O)c4O[C@H]2C(=O)CC[C@@]3(O)[C@H]1C5", "result.units": "nM", "Ki": 2.6}

---

measurement.notes: Displacement of [3H]DPDPE from delta opioid receptor in guinea pig forebrain by beta plate scintillation counting
Set-up: species or system Cavia porcellus
Form field: Ki (one value per entry).

{"molecule": "O=C1NCC(O)c2ccc(c(Br)c2)Oc2cc(ccc2O)CCNC(=O)/C(=N/O)C(O)c2cc(Br)c(c(Br)c2)Oc2cc(cc(Br)c2OS(=O)(=O)O)C/C1=N\\O (configuration not stated) [BASTADIN 26]", "Ki / µM": 0.1}
{"molecule": "C=CCN1CC[C@]23c4c5ccc(O)c4O[C@H]2C(=O)CC[C@@]3(O)[C@H]1C5 [NALOXONE]", "Ki / µM": 0.03}

---

measurement.notes: Displacement of [3H]DPDPE from delta opioid receptor in guinea pig forebrain by beta plate scintillation counting
Parameters: species or system Cavia porcellus
property.label: IC50

{"compound": "O=C1NCC(O)c2ccc(c(Br)c2)Oc2cc(ccc2O)CCNC(=O)/C(=N/O)C(O)c2cc(Br)c(c(Br)c2)Oc2cc(cc(Br)c2OS(=O)(=O)O)C/C1=N\\O (stereo unspecified)", "measured.result": "206 nM"}

---

measurement.notes: Displacement of [3H]DAMGO from mu opioid receptor in guinea pig forebrain by beta plate scintillation counting
pKi: −log10 of the molar value.

{"smiles.structure": "C=CCN1CC[C@]23c4c5ccc(O)c4O[C@H]2C(=O)CC[C@@]3(O)[C@H]1C5", "pKi": 8.41}
